The values you see were collected from ChEMBL document CHEMBL1201862.

test system: OVCAR-4; assay: NCI tumour cell line growth inhibition, 48 h
Active and inactive are the calls of the source. No stated cut-off is given here; in the data, active = GI50 up to about 1.1 µM and inactive = higher.
Outcomes you can answer with include only these: active, inactive

1. CC(N/N=C(\S)N1CCCC1)c1cccnn1 (configuration not stated); active
2. COC1=C(OC)C(=O)C(Cc2c(Cl)nc3n2CCS3)=C(C)C1=O; inactive
3. CC1CCP(=O)(c2ccccc2)CC1 (configuration not stated); inactive
4. COC(=O)/N=[N+](\[O-])C(c1ccc(Cl)cc1)c1ccc(Cl)cc1; inactive
5. O=C1OC(C(O)C(O)C(O)CO)C(O)C1O (configuration not stated); inactive

Given CCOc1c(Br)cc(Br)cc1C=C(C#N)C#N , state the outcome it received in this test.
inactive

Given Cc1ccccc1OC(C)C(=O)NN1C(=O)CSC1c1ccccc1 (configuration not stated) , state the outcome it received in this test.
inactive

Given Nc1nc(O)c2ncn(C3C=CC(CO)C3)c2n1 (configuration not stated) , state the outcome it received in this test.
inactive

Given C/C(=N\N=C(/S)N1CC2CCC(CC2)C1)c1cccc[n+]1[O-] , state the outcome it received in this test.
inactive

====

system: 786-0; assay: NCI tumour cell line growth inhibition, 48 h
Activity calls are given as the source filed them. No stated cut-off is given here; in the data, active = GI50 up to about 1.1 µM and inactive = higher.
Outcomes you can answer with include only these: active, inactive

1) Oc1cccnc1/C=N/OCc1ccccc1; inactive
2) Cc1ccc(S(=O)(=O)NC2CCCCO2)cc1 (configuration not stated); inactive
3) CNn1c(-c2ccccc2)n[nH]c1=O; inactive

Given CCOC1SC(SC)=NN1C(=O)C(OC(C)=O)C(OC(C)=O)C(OC(C)=O)C(OC(C)=O)C(=O)N1N=C(SC)SC1OCC (configuration not stated) , state the outcome it received in this test.
inactive

Given COc1ccc(C2Oc3ccc(Cl)cc3C=C2[N+](=O)[O-])cc1 (configuration not stated) , state the outcome it received in this test.
inactive

Given CC12CCC(=O)N1c1ccc([N+](=O)[O-])cc1N2 (configuration not stated) , state the outcome it received in this test.
inactive

====

test system: SNB-19; experiment: NCI tumour cell line growth inhibition, 48 h
The source made the active and inactive calls. No stated cut-off is given here; in the data, active = GI50 up to about 1.1 µM and inactive = higher.
Below, each of the compounds is paired with its reported GI50 value.

# example entries with known answers
1. O=C(c1ccc(/N=C/c2ccccc2O)cc1)c1ccc(/N=C/c2ccccc2O)cc1; > 100 µM (inactive)
2. CSc1nc2[nH]c(=O)c(C)nc2c(=O)[nH]1; > 100 µM (inactive)
3. CC1=Nn2c(nc3sc4c(c3c2=O)CCCC4)SC1; 90.2 µM (inactive)
4. COc1ccc2c(c1)C(=O)[C@@](Nc1ccc(C=O)cc1)(OC)[C@@](OC)(c1ccc([N+](=O)[O-])cc1)O2; > 10 µM (inactive)

GI50 lookup needed for CCN(CC)CCNC(=O)c1ccccc1Nc1c(Cl)cccc1Cl , thanks.
16.4 µM (inactive)

====

tested on: PC-3; assay: NCI tumour cell line growth inhibition, 48 h
Calls of active or inactive are those of the source. Cut-off read from the data, not from the text of the source: active = GI50 up to about 1.1 µM and inactive = higher.
readoutKind: GI50

1. COC(=O)C1SC[C@H]2C(=O)N(c3ccccc3)C(=O)N12 (stereo partly drawn); > 100 µM (inactive)

Lookup: GI50 / PC-3 / Cc1ccc(S(=O)(=O)N2CC(CCN)c3ccccc32)cc1 (stereo not drawn)
3.64 µM (inactive)

Lookup: GI50 / PC-3 / FC(F)(F)c1ccc2c(c1)nc(-c1ccc(Cl)cc1)n2CC1CCCN2CCCCC12 (stereo not drawn)
11.6 µM (inactive)

====

system: MCF7; assay: NCI tumour cell line growth inhibition, 48 h
The source made the active and inactive calls. Cut-off read from the data, not from the text of the source: active = GI50 up to about 1.1 µM and inactive = higher. Where a SMILES comes first, the peptide text is derived from it. Bridges are numbered along the chain shown (N, C = ends). [ ]: non-standard residue; d: D form. The star is where a group is joined. ξ: configuration not given here. X28 = O=C(/C=C/C=C/C=C/C=C/C=C/C(=O)*)NC1=C(O)CCC1=O; NMeA = CN[C@@H](C)C(=O)O; ξF = NC(Cc1ccccc1)C(=O)O; ξA = CC(N)C(=O)O
readoutKind: GI50

# example entries with known answers
1. O=[N+]([O-])C(=C/c1ccccc1)/C(=C\c1ccccc1)[N+](=O)[O-]; 14.9 µM (inactive)
2. COc1cccc(C2c3cc4c(cc3OC(Nc3ccccc3)C2C)OCO4)c1OC (centres undefined); 6.89 µM (inactive)
3. COc1cc(-c2coc3c(OC)c(OC4OC(CO)C(O)C(O)C4O)c(OC)cc3c2=O)cc(OC)c1C (centres undefined); 3.66 µM (inactive)
4. O=C1CC(C(O)C(O)C(O)CO)CC(=O)N1 (centres undefined); > 100 µM (inactive)
5. N#CC1(C#N)NC(c2cccnc2)C(C#N)(C#N)NC1c1cccnc1 (centres undefined); > 100 µM (inactive)
6. COC(=O)C1=C2SCc3ccc(cc3)CSC3=C(C(=O)OC)SC(=C(S2)S1)S3; > 100 µM (inactive)
7. CCCCCCCCCCCCCCCCCCNC(=O)OCC(CNS(=O)(=O)CCC[n+]1cccc2ccccc21)COC (centres undefined); 1.55 µM (inactive)
8. COc1cc(/C=C/C=C2\CC/C(=C\C=C\c3ccc(O)c(OC)c3)C2=O)ccc1O; > 100 µM (inactive)
9. COc1cccc(-c2cc(O)c3cc(N4CCCC4)ccc3n2)c1; 0.0394 µM (active)
10. Nc1n[nH]c2nc3ccccc3nc12; 61.2 µM (inactive)

GI50 lookup needed for CC1NC(=O)[C@H](C)N(C)C(=O)[C@@H]2CCCN2C(=O)[C@@H](NC(=O)C(Cc2ccccc2)NC(=O)/C=C/C=C/C=C/C=C/C=C/C(=O)NC2=C(O)CCC2=O)COC(=O)[C@@H]2CCCN2C1=O (some centres undefined) (X28-[ξF]SP[NMeA][ξA]P; ester 2-C) , thanks.
> 100 µM (inactive)

GI50 lookup needed for CC[C@H]1CN(C)[C@H]2Cc3c([nH]c4ccccc34)C(=O)C[C@H]1C2C(=O)OC (some centres undefined) , thanks.
> 100 µM (inactive)

GI50 lookup needed for Cc1ccc(-c2c(C#N)c(-c3ccc(N(C)C)cc3)c(C#N)c(=O)n2NS(=O)(=O)c2ccccc2)cc1 , thanks.
26.1 µM (inactive)

GI50 lookup needed for O=C1NCC2(CCN(Cc3ccccc3)CC2)N1 , thanks.
> 100 µM (inactive)

GI50 lookup needed for O=C1N/C(=N/N=C/c2c[nH]c3ccccc23)N/C1=C\c1c[nH]c2ccccc12 , thanks.
16 µM (inactive)

GI50 lookup needed for COC(=O)C1SC[C@H]2C(=O)N(c3ccccc3)C(=O)N12 (some centres undefined) , thanks.
> 100 µM (inactive)

GI50 lookup needed for CC(=O)C(C)(C)CCC(C)(C)C(C)=O , thanks.
> 100 µM (inactive)

GI50 lookup needed for O=C(c1ccc(/N=C/c2ccccc2O)cc1)c1ccc(/N=C/c2ccccc2O)cc1 , thanks.
> 100 µM (inactive)

GI50 lookup needed for Cc1ccc(/C(O)=C/c2nc3ccccc3oc2=O)cc1 , thanks.
47.6 µM (inactive)

====

system: SK-MEL-28; assay: NCI tumour cell line growth inhibition, 48 h
Calls of active or inactive are those of the source. No stated cut-off is given here; in the data, active = GI50 up to about 1.1 µM and inactive = higher.
readoutKind: GI50

# example entries with known answers
1) CCOC(=O)C1N(S(=O)(=O)c2ccc(C)cc2)CCC12c1ccccc1N(C(C)=O)C2c1ccc(OC)c(OC)c1 (stereo not given); > 100 µM (inactive)
2) CC1(C)CCCCCCCCCC(C)(CCCO)C1=O (stereo not given); 18.2 µM (inactive)
3) CC1CCP(=O)(c2ccccc2)CC1 (stereo not given); > 100 µM (inactive)

GI50 lookup needed for CC(C)NC(=O)O/N=C1\CCC2[C@@H]3CC=C4C[C@@H](OC(=O)NC(C)C)CC[C@]4(C)C3CC[C@]12C (stereo not given in full) , thanks.
1.59 µM (inactive)

GI50 lookup needed for CCc1cccc(C(C)CC)c1NC(=O)CC1C(=O)Nc2ccccc2[S+]1[O-] (stereo not given) , thanks.
26.1 µM (inactive)

GI50 lookup needed for CCCN(CCC)c1c([N+](=O)[O-])cc(C(N)=O)cc1[N+](=O)[O-] , thanks.
> 100 µM (inactive)

GI50 lookup needed for CCOC(=O)C12CCCC1(O)N(NC(=O)OC)C(C)=C2C(=O)OC (stereo not given) , thanks.
> 100 µM (inactive)

GI50 lookup needed for O=C1/C(=C/c2cccs2)NC(=S)N1CN1CCCCC1 , thanks.
> 100 µM (inactive)

GI50 lookup needed for O=C1OC(C(O)C(O)C(O)CO)C(O)C1O (stereo not given) , thanks.
> 100 µM (inactive)

GI50 lookup needed for CC(=O)/C=C/C=C(\C)CC/C=C(\C)CC(C)C , thanks.
33.9 µM (inactive)

====

Below, each of the molecules is paired with its reported GI50 value.
system: Hs-578T; assay: NCI tumour cell line growth inhibition, 48 h
Active and inactive are the calls of the source. Rule as the data show it: active = GI50 up to about 1.1 µM and inactive = higher. Peptide text beside a SMILES is read from it. * marks the point of attachment. Cbz = O=C(OCc1ccccc1)*; CH2Cl = ClC*

# example entries with known answers
1) CC1CCc2c(c(CC3CC(=O)NC(=O)C3)nn2-c2ccccc2)C1 (stereo not given); > 100 µM (inactive)
2) COC(=O)C1(Cc2ccccc2)Cc2cc3c(cc2C1O)CCC3 (stereo not given); 13.8 µM (inactive)
3) CCOc1c(Br)cc(Br)cc1C=C(C#N)C#N; 3.67 µM (inactive)

GI50 lookup needed for CC(C)CC(NC(=O)OCc1ccccc1)C(=O)NC(Cc1ccccc1)C(=O)CCl (stereo not drawn) (Cbz-Leu-Phe-CH2Cl; configuration not given here) , thanks.
4.62 µM (inactive)

GI50 lookup needed for CSc1nc(=O)cnn1C , thanks.
> 100 µM (inactive)
